Reference for the values: patent US12692269B2

target under test: TEAD1 TAZ (amino acids 13-57) (Homo sapiens)
Sequence (P28347 167-426 limits assumed): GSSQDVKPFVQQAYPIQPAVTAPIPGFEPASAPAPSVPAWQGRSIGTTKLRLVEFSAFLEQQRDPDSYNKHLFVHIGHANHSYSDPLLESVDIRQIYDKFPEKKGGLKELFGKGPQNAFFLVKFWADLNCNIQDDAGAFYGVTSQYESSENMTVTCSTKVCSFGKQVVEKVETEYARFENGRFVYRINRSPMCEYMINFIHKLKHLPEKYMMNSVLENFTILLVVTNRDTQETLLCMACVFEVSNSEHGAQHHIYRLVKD
assay info: TEAD1-TAZ HTRF (TR-FRET) protein-protein interaction assay
Type: binding
condition set: TEAD1, TAZ peptide, HTRF
Method: Purified His-tagged TEAD protein (YAP Binding Domain, amino acids 217-447) is pre-incubated with Europium labelled anti-His antibody tracer (Perkin Elmer Cat #AD0110). […] After 60 minutes, the plate is read on a plate reader using TR-FRET mode with wavelengths of 665 nm/615 nm. […] The potency of compounds as YAP:TEAD or TAZ:TEAD protein-protein interaction (PPi) inhibitors is determined by an IC50 or EC50 value generated using a non-linear four parameter curve fit.
measurement name: TEAD1 TAZ HTRF combined: Max % Inhibition (%)
Provide only the numeric value, understood in %.

molecule | target under test | result value
Cc1ccnc(-c2nn3c(=O)cc(-c4ccc(C5CCCCC5)cc4)[nH]c3c2C(=O)N2CC(CF)C2)n1 [Compound 9] | TEAD1 TAZ (amino acids 13-57) (Homo sapiens) | 69.5

IN: // map CN(C)C(=O)c1nn2c(=O)cc(-c3ccc(C4CCCCC4)cc3)[nH]c2c1C(=O)N1CC(CF)C1 [Compound 1] to recorded TEAD1 TAZ HTRF combined: Max % Inhibition (system: TEAD1 TAZ (amino acids 13-57) (Homo sapiens))
OUT: 61.2

IN: So what TEAD1 TAZ HTRF combined: Max % Inhibition did O=C(c1c(-c2ncco2)nn2c(=O)cc(-c3ccc(C4CCCCC4)cc3)[nH]c12)N1CC(CF)C1 [Compound 19] get with TEAD1 TAZ (amino acids 13-57) (Homo sapiens)?
OUT: 59.5

IN: // lookup TEAD1 TAZ HTRF combined: Max % Inhibition | system=TEAD1 TAZ (amino acids 13-57) (Homo sapiens) | key= Cn1cnc(-c2nn3c(=O)cc(-c4ccc(C5CCCCC5)cc4)[nH]c3c2C(=O)N2CC(CF)C2)c1 [Compound 32]
OUT: 59.5

IN: # value lookup — system TEAD1 TAZ (amino acids 13-57) (Homo sapiens), readout TEAD1 TAZ HTRF combined: Max % Inhibition, item C[C@H]1[C@@H](CF)CN1C(=O)c1c(-c2cnccn2)nn2c(=O)cc(-c3ccc(CC4CCCC4)cc3)[nH]c12 (single isomer, unassigned) [Isomer B, Example 44]
OUT: 59.5

====

target under test: TEAD4 YAP50-100 (Homo sapiens, UniProt Q15561)
Sequence (Q15561 217-434 limits assumed): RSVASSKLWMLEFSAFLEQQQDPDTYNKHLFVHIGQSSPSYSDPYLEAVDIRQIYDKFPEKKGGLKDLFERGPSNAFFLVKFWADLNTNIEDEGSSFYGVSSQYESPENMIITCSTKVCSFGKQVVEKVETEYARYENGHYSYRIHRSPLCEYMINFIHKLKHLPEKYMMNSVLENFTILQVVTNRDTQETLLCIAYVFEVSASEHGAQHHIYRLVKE
assay info: TEAD4-YAP HTRF (TR-FRET) protein-protein interaction assay
condition set: TEAD4, YAP peptide 50-100, HTRF; read-out: TEAD4 YAP50-100 HTRF combined: EC50
Labelling field: enter True if recorded EC50 is less than 60 nM. Enter False if it equals or exceeds that cut-off.

compound structure string | class name
O=C(c1c(-c2cccnc2)nn2c(=O)cc(-c3ccc(C4CCCCC4)cc3)[nH]c12)N1CC(CF)C1 | False
Cc1ccnc(-c2nn3c(=O)cc(-c4ccc(C5CCCCC5)cc4)[nH]c3c2C(=O)N2CC(CF)C2)c1 | True
CC(C)(C)c1ccc(COc2cc(=O)n3nc(-c4ncccn4)c(C(=O)N4CC(CF)C4)c3[nH]2)cc1 | True

Pending compound:
IN: # check: EC50 < 60 nM for Cc1ccnc(-c2nn3c(=O)cc(-c4ccc(C5CCCCC5)cc4)[nH]c3c2C(=O)N2CC(CF)C2)c1C
OUT: True
